subject of test: 5-hydroxytryptamine receptor 6 (Homo sapiens, UniProt P50406)
Sequence (P50406 whole entry): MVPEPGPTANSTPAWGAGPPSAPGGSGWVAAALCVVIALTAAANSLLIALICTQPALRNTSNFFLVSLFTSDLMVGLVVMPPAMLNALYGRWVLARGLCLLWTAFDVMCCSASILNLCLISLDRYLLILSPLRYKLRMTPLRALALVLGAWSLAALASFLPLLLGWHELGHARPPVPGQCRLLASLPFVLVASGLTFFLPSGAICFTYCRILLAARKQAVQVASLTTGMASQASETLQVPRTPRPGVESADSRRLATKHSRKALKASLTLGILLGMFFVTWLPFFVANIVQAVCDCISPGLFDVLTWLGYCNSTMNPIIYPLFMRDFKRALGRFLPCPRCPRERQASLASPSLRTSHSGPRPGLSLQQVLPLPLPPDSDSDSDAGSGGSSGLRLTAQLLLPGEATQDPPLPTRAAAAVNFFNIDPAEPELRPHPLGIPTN
assay protocol: Binding affinity to human 5HT6 receptor expressed in COS7 cells assessed as emission fluorescence intensity
Assay type: cell-based
assay context: COS-7
quantity kind: Activity (a.u.)

a. COc1ccc(NS(=O)(=O)c2sc3ccc(Cl)cc3c2C)cc1N1CCN(S(=O)(=O)c2cccc3c(N(C)C)cccc23)CC1
b. COc1ccc(NS(=O)(=O)c2cccc3c(N(C)C)cccc23)cc1N1CCN(CCCCCCCCNS(=O)(=O)c2cccc3c(N(C)C)cccc23)CC1
c. COc1ccc(N(CCCCNS(=O)(=O)c2cccc3c(N(C)C)cccc23)S(=O)(=O)c2sc3ccc(Cl)cc3c2C)cc1N1CCNCC1
Exercise: Order by Activity, smallest first, the items presented above. Give the labels in the order specified.
Solution: c, b, a

====

pKi: −log10 of the molar value.
Here we list compounds with their recorded pKi when tested on 5-hydroxytryptamine receptor 6 (Homo sapiens).
quantity kind: pKi

Recorded pKi, per entry:
[
  {
    "structure as smiles": "COc1ccc(N(CCCCCCCCNS(=O)(=O)c2cccc3c(N(C)C)cccc23)S(=O)(=O)c2sc3ccc(Cl)cc3c2C)cc1N1CCNCC1",
    "pKi": 6.67
  },
  {
    "structure as smiles": "COc1ccc(NS(=O)(=O)c2cccc3c(N(C)C)cccc23)cc1N1CCN(CCCCCCCCNS(=O)(=O)c2cccc3c(N(C)C)cccc23)CC1",
    "pKi": 6.71
  },
  {
    "structure as smiles": "COc1ccc(NS(=O)(=O)c2cccc3c(N(C)C)cccc23)cc1N1CCN(CCCCNS(=O)(=O)c2cccc3c(N(C)C)cccc23)CC1",
    "pKi": 6.76
  }
]

A. COc1ccc(N(S(=O)(=O)c2cccc3c(N(C)C)cccc23)S(=O)(=O)c2cccc3c(N(C)C)cccc23)cc1N1CCNCC1
B. Cc1c(S(=O)(=O)Nc2ccc(OCCCCCCCCNS(=O)(=O)c3cccc4c(N(C)C)cccc34)c(N3CCNCC3)c2)sc2ccc(Cl)cc12
C. COc1ccc(NS(=O)(=O)c2sc3ccc(Cl)cc3c2C)cc1N1CCN(CCCCCCNS(=O)(=O)c2cccc3c(N(C)C)cccc23)CC1
Exercise: Ascending sort, pKi. List labels; respect the requested ordering.
Solution: B, C, A
